Target: T1, L-selectin (LS-Rg) (Homo sapiens, UniProt P14151 P14151:39-332)
T1 chain: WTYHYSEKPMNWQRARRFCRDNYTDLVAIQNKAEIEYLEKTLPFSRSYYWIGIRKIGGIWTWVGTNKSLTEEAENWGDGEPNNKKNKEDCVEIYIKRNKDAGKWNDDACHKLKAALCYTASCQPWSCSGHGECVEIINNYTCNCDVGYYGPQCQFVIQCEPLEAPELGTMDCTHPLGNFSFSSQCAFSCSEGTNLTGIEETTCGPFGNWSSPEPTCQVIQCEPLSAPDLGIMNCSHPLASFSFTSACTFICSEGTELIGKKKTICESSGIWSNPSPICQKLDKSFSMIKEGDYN
Assay: filter; room temp; 23.2 nM at 37 C
Conditions: tags: human IgG2 Fc fusion (provided by A. Varki); label: 32P; hairpin
pKd: −log10 of the molar value.

Binder | pKd
112 (ssDNA) DNA: CTACCTACGATCTGACTAGCCGCATCCACATAGTTCAAGGGGCTACACGAAATATTGCAGCTTACTCTCATGTAGTTCC | 9.52
